Delta APD90 by entry:
# Species on record: Cavia porcellus
# Measurement protocol: Compound was evaluated for the increase in duration or cardiac APD (action potential duration) at 90% repolarization, using isolated guinea pig ventricular myocytes at concentration of 100 nM
# Type: functional, Heart, Ventricular myocyte
# Design: unit not given here
Keep the answer to the number alone.

# Compound, Reported measurement
measured = [
    ("CS(=O)(=O)Nc1ccc(OCC(O)CN2CCC(c3ccccc3)CC2)cc1 (centres undefined)", 48),
]

Which Delta APD90 reading was recorded for the compound CN(CCCc1ccccc1)CC(O)COc1ccc(NS(C)(=O)=O)cc1 (centres undefined) ?
70

Which Delta APD90 reading was recorded for the compound CS(=O)(=O)Nc1ccc(OCC(O)CN2CCc3ccccc3C2)cc1 (centres undefined) ?
60

---

# Species: Cavia porcellus
# Measurement protocol: Compound was evaluated for the increase in duration or cardiac APD (action potential duration) at 90% repolarization, using isolated guinea pig ventricular myocytes at concentration of 100 nM
# Assay type: functional, Heart, Ventricular myocyte
# Design: unit not given here
Measurement kind: Delta APD90
Keep the answer to the number alone.

# Compound, Reported measurement
measured = [
    ("CN(CCc1ccc(Cl)c(Cl)c1)CC(O)COc1ccc(NS(C)(=O)=O)cc1 (stereo unspecified)", 85),
]

Attention now turns to another entry.
Which Delta APD90 reading was recorded for the compound CN(CCc1ccccc1)CC(O)COc1ccc(NS(C)(=O)=O)cc1 (stereo unspecified) ?
48

---

Delta APD90 by entry:
# Organism: Cavia porcellus
# Measurement protocol: Compound was evaluated for the increase in duration or cardiac APD (action potential duration) at 90% repolarization, using isolated guinea pig ventricular myocytes at concentration of 100 nM
# Format: functional, Heart, Ventricular myocyte
# Parameters: unit not given here
Keep the answer to the number alone.

# Compound, Delta APD90
rows = [
    ("COc1ccc(CCN(CC(O)COc2ccc(NS(C)(=O)=O)cc2)C(C)C)cc1OC (centres undefined)", 65),
    ("COc1ccc(CCN(C)CC(O)COc2ccc(NS(C)(=O)=O)cc2)cc1OC (centres undefined)", 40),
    ("CN(C/C=C/c1ccccc1)CC(O)COc1ccc(NS(C)(=O)=O)cc1 (centres undefined)", 100),
]

Attention now turns to another entry.
Which Delta APD90 reading was recorded for the compound CN(CCOc1ccc(NS(C)(=O)=O)cc1)CCc1ccc(NS(C)(=O)=O)cc1 [DOFETILIDE] ?
63
